Recorded (B) hLTBP1, Matrix-associated proTGFβ1 KD for the following molecules
- system: T1, hLTBP1-proTGFβ1 (Homo sapiens, UniProt P01137)
- T1 construct: made in house; host or cells: Expi293F cells, transient co-transfection
- T1 sequence (P01137 30-390): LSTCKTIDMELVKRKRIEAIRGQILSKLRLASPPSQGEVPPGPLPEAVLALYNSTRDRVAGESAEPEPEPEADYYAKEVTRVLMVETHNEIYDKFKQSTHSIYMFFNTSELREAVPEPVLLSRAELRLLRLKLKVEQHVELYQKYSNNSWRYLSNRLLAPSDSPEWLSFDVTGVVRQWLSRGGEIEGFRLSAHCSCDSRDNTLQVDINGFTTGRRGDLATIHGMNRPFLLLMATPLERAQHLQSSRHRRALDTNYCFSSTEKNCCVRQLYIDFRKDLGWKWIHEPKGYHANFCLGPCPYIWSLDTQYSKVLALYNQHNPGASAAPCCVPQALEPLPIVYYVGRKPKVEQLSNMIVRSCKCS
- T1 sequence (Q14766 873-1507 partner): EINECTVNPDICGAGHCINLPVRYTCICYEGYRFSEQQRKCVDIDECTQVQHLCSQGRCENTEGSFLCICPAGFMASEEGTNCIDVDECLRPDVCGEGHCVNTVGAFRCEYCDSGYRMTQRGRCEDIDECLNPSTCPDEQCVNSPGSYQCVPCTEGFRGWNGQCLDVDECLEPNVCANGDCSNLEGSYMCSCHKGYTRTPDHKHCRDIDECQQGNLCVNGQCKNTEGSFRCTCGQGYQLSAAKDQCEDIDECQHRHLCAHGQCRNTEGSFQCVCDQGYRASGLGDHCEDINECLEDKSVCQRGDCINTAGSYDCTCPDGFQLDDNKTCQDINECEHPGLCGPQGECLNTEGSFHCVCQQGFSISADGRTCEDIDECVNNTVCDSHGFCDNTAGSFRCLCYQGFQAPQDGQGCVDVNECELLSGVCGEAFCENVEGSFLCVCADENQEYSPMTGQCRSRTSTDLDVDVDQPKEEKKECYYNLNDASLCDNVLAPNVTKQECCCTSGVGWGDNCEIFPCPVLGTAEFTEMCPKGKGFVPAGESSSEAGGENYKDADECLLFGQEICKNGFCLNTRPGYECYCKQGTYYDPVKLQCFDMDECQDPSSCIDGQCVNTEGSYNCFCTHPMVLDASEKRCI
- protocol summary: MSD-SET solution equilibrium titration binding
- conditions used: MSD-SET at equilibrium, hIgG4, human complex; in M
Number only, please.

Ab32: monoclonal antibody; VH SEQ ID NO: 140, VL SEQ ID NO: 15 (antibody, V domains shown) VH: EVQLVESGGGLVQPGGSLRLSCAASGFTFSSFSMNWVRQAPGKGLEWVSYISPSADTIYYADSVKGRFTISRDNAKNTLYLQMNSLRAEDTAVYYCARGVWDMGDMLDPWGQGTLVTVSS VL: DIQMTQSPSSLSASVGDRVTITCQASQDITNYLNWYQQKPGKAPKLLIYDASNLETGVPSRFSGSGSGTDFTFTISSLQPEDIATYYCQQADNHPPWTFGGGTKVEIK ... 3.70E−11

Kindly consider the entry below.
Exam item: I'd like to know its (B) hLTBP1, Matrix-associated proTGFβ1 KD. The molecule in question is Ab11: monoclonal antibody; VH SEQ ID NO: 239, VL SEQ ID NO: 241 (antibody, V domains shown) VH: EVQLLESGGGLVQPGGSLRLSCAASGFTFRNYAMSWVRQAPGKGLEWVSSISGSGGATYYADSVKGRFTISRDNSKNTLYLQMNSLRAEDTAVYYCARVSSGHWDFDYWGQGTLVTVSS VL: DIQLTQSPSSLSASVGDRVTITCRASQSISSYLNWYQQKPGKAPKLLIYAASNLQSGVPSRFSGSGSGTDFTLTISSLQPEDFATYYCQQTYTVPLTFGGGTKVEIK
Marked response: 1.20E−09
